So I've got a bunch of compounds here, and I need their T/C values.
system: BDF1 mice, s.c. Lewis lung carcinoma, T/C %; test: NCI In Vivo Anticancer Drug Screen. Data for tumor model Lewis Lung Carcinoma (subcutaneous) in B6D2F1 (BDF1) mice; details: endpoint: mean tumor weight; dose: 20.0 mg/kg/injection; schedule: Q01DX011 (ip); vehicle: saline; higher = larger tumour
Inconclusive results are not listed.

Query :: What does the data say about its T/C? Entry: O=C(O)C(=O)O.[U]
Result :: 27 % of control

Query :: What does the data say about its T/C? Entry: Nc1ccn(C2OC(CO)C(O)C2O)c(=O)n1 (stereo unspecified)
Result :: 55 % of control

Query :: What does the data say about its T/C? Entry: CN(CCCOS(C)(=O)=O)CCCOS(C)(=O)=O
Result :: 49 % of control

Query :: What does the data say about its T/C? Entry: O=c1[nH]cc(F)c(=O)[nH]1
Result :: 35 % of control

Query :: What does the data say about its T/C? Entry: CC1([CH2][Hg][I])COCC([CH2][Hg][I])O1 (stereo unspecified)
Result :: 52 % of control

Query :: What does the data say about its T/C? Entry: CC1CCOS(=O)O1 (stereo unspecified)
Result :: 63 % of control

Query :: What does the data say about its T/C? Entry: CN(N=O)C(N)=O
Result :: 20 % of control

Query :: What does the data say about its T/C? Entry: CS(=O)(=O)OCCCNCCCOS(C)(=O)=O
Result :: 70 % of control

Query :: What does the data say about its T/C? Entry: O=C1NC2C(NC(=O)N2Cl)N1Cl (stereo unspecified)
Result :: 97 % of control

Query :: What does the data say about its T/C? Entry: O=S1(=O)CCCO1
Result :: 102 % of control

Query :: What does the data say about its T/C? Entry: O=c1[nH]c(=O)n(C2CC(O)C(CO)O2)cc1F (stereo unspecified)
Result :: 57 % of control

---

tested on: BDF1 mice, s.c. Lewis lung carcinoma, T/C %; test: NCI In Vivo Anticancer Drug Screen. Data for tumor model Lewis Lung Carcinoma (subcutaneous) in B6D2F1 (BDF1) mice; details: endpoint: median survival time; dose: 3.12 mg/kg/injection; schedule: Q01DX009 (ip); vehicle: saline; higher = longer survival
Inconclusive results are not listed.
So I've got a bunch of compounds here, and I need their T/C values.

Query :: Observed T/C on BDF1 mice, s.c. Lewis lung carcinoma, T/C % for O=C1NC2(CCCCC2)C(=O)N1CCN(CCCl)CCCl , please.
Result :: 100 % of control

Query :: Observed T/C on BDF1 mice, s.c. Lewis lung carcinoma, T/C % for CCCCCC(CN(C)C)C(O)/C=C/c1ccccc1Cl (configuration not stated) , please.
Result :: 99 % of control

Query :: Observed T/C on BDF1 mice, s.c. Lewis lung carcinoma, T/C % for COC1N(C2CC(O)C(CO)O2)C(=O)NC(=O)C1(F)Br (configuration not stated) , please.
Result :: 110 % of control

Query :: Observed T/C on BDF1 mice, s.c. Lewis lung carcinoma, T/C % for CC(=O)CC(C)=O.CC(=O)CC(C)=O.CC(=O)CC(C)=O.[V] , please.
Result :: 109 % of control

Query :: Observed T/C on BDF1 mice, s.c. Lewis lung carcinoma, T/C % for O=P(N1CCOCC1)(N1CC1)N1CC1 , please.
Result :: 100 % of control

Query :: Observed T/C on BDF1 mice, s.c. Lewis lung carcinoma, T/C % for CC(C)=CC(=O)OCC[N+](C)(C)C , please.
Result :: 103 % of control

Query :: Observed T/C on BDF1 mice, s.c. Lewis lung carcinoma, T/C % for CS(=O)(=O)OCCC(=O)N1CCN(C(=O)CCOS(C)(=O)=O)CC1 , please.
Result :: 103 % of control
